Test system: HT-29
EXPERIMENT NOTES: Cytotoxicity against human HT-29 cells assessed as reduction in cell viability preincubated for 1 hr followed by light irradiation at 3.2 J/cm2 for 30 sec and measured after 24 hrs by MTT assay
Assay type: functional, cell-based
EXPERIMENTAL SETUP: HT-29, light or radiation study
Quick list: IC50 per entry.
Output spec: scalar in nM, unitless text.

Take a look at these entries with their results.
>>> numeric_readout("CN(C)c1ccc2nc3ccc(N(C)C)cc3[s+]c2c1.[Cl-] [METHYLENE BLUE ANHYDROUS]")
9200
>>> numeric_readout("CCN(CC)c1ccc2nc3c(cc(N)c4nc(C)ccc43)[s+]c2c1.[Cl-]")
210
>>> numeric_readout("CCCCCCCNc1cc2[s+]c3cc(N(CC)CC)ccc3nc2c2ccc(C)nc12.[Cl-]")
1050

API: the following record is the query input.
For CCCNc1cc2[s+]c3cc(N(CC)CC)ccc3nc2c2ccc(C)nc12.[Cl-] , write its IC50.
39

---

Tested on: HT-29
EXPERIMENT NOTES: Cytotoxicity against human HT-29 cells assessed as reduction in cell viability incubated for 24 hrs in dark by MTT assay
Type: cell-based
EXPERIMENTAL SETUP: HT-29, 24 h
EXPERIMENTAL READOUT: pIC50
pIC50 field: float, defined as -log10 of concentration (mol/L).

>>> numeric_readout("CCCCCCCNc1cc2[s+]c3cc(N(CC)CC)ccc3nc2c2ccc(C)nc12.[Cl-]")
5.05
>>> numeric_readout("CCCNc1cc2[s+]c3cc(N(CC)CC)ccc3nc2c2ccc(C)nc12.[Cl-]")
5.68

API: the following record is the query input.
For CCN(CC)c1ccc2nc3c(cc(N)c4nc(C)ccc43)[s+]c2c1.[Cl-] , write its pIC50.
5.34

---

EXPERIMENT NOTES: MRT (0 to infinity) in Sprague-Dawley rat at 2 mg/kg, iv measured upto 24 hrs by fluorescence based assay
Assay type: ADME, organism-based
EXPERIMENTAL SETUP: in vivo
EXPERIMENTAL READOUT: MRT inf (h)
Output spec: scalar in h, unitless text.

For CCCNc1cc2[s+]c3cc(N(CC)CC)ccc3nc2c2ccc(C)nc12.[Cl-] , write its MRT inf.
12.4

---

Tested on: MCF7
EXPERIMENT NOTES: Cytotoxicity against human MCF7 cells assessed as reduction in cell viability incubated for 1 hr followed by light irradiation for 30 sec at 3.2 J/cm2 and measured after 24 hrs by MTT assay
Assay type: functional, cell-based
EXPERIMENTAL SETUP: MCF7, light or radiation study
EXPERIMENTAL READOUT: IC50
Field note: include the unit after the figure.

>>> result("CCN(CC)c1ccc2nc3c(cc(N)c4nc(C)ccc43)[s+]c2c1.[Cl-]")
"500 nM"
>>> result("CCCNc1cc2[s+]c3cc(N(CC)CC)ccc3nc2c2ccc(C)nc12.[Cl-]")
"370 nM"

Recall the reported IC50 of CCCCCCCNc1cc2[s+]c3cc(N(CC)CC)ccc3nc2c2ccc(C)nc12.[Cl-] on MCF7 and write it down.
3800 nM

---

Quick list: IC50 per entry.
Test system: MCF7
EXPERIMENT NOTES: Cytotoxicity against human MCF7 cells assessed as reduction in cell viability incubated for 24 hrs in dark by MTT assay
Assay type: cell-based
EXPERIMENTAL SETUP: MCF7, 24 h
Output spec: scalar in nM, unitless text.

>>> numeric_readout("CCCNc1cc2[s+]c3cc(N(CC)CC)ccc3nc2c2ccc(C)nc12.[Cl-]")
1900
>>> numeric_readout("CCN(CC)c1ccc2nc3c(cc(N)c4nc(C)ccc43)[s+]c2c1.[Cl-]")
1100

For CCCCCCCNc1cc2[s+]c3cc(N(CC)CC)ccc3nc2c2ccc(C)nc12.[Cl-] , write its IC50.
14400

---

EXPERIMENT NOTES: Cmax in Sprague-Dawley rat at 2 mg/kg, iv measured upto 24 hrs by fluorescence based assay
Type: ADME, organism-based
Design: dose 2 mg/kg, route intravenous
EXPERIMENTAL SETUP: in vivo
EXPERIMENTAL READOUT: Cmax (ng/mL)
Output spec: scalar in ng/mL, unitless text.

For CCCNc1cc2[s+]c3cc(N(CC)CC)ccc3nc2c2ccc(C)nc12.[Cl-] , write its Cmax.
2180

---

EXPERIMENT NOTES: Clearance in Sprague-Dawley rat at 2 mg/kg, iv measured upto 24 hrs by fluorescence based assay
Format: ADME, organism-based
EXPERIMENTAL SETUP: in vivo
EXPERIMENTAL READOUT: clearance
Field note: include the unit after the figure.

For CCCNc1cc2[s+]c3cc(N(CC)CC)ccc3nc2c2ccc(C)nc12.[Cl-] , write its clearance.
7.33 mL/min/kg
